Test: Measurement of fluorescence quantum yield (Rhodamine B in ethanol as reference)
Type: physicochemical
Settings: solvent DMSO
Threshold 0.008: Φ2 (fluorescence quantum yield) strictly smaller gives met, otherwise not met.

Query: Lab note: Φ2 (fluorescence quantum yield) threshold 0.008. Does this compound come in strictly under it? CCN1/C(=C/C=C/C(=C/C2=[N+](CC)c3ccccc3C2(C)C)Nc2ccccc2)C(C)(C)c2ccccc21 [Dye IIg]
Result: met

Query: Hello, is Φ2 (fluorescence quantum yield) of the following compound strictly smaller than 0.008? CCN1/C(=C/C=C/C(=C/C2=[N+](CC)c3ccccc3C2(C)C)N(Cc2ccccc2)Cc2ccccc2)C(C)(C)c2ccccc21 [Dye IIf]
Result: met

Query: Identify whether the compound CCN(CC)C(=C\C1=[N+](CC)c2ccccc2C1(C)C)/C=C/C=C1/N(CC)c2ccccc2C1(C)C [Dye IId] records Φ2 (fluorescence quantum yield) below 0.008.
Result: met

Query: Please indicate whether the reported Φ2 (fluorescence quantum yield) of CCN1/C(=C/C=C/C(N)=C/C2=[N+](CC)c3ccccc3C2(C)C)C(C)(C)c2ccccc21 [Dye IIa] is strictly below 0.008.
Result: not met

Query: Lab note: Φ2 (fluorescence quantum yield) threshold 0.008. Does this compound come in strictly under it? CCN1/C(=C/C=C/C(=C/C2=[N+](CC)c3ccccc3C2(C)C)N(CCO)CCO)C(C)(C)c2ccccc21 [Dye IIc]
Result: met
